EXPERIMENTAL SYSTEM: human recombinant dopamine D2L receptor (Homo sapiens)
Construct: expressed in transfected cells; host or cells: CHO
Sequence (P14416 whole entry): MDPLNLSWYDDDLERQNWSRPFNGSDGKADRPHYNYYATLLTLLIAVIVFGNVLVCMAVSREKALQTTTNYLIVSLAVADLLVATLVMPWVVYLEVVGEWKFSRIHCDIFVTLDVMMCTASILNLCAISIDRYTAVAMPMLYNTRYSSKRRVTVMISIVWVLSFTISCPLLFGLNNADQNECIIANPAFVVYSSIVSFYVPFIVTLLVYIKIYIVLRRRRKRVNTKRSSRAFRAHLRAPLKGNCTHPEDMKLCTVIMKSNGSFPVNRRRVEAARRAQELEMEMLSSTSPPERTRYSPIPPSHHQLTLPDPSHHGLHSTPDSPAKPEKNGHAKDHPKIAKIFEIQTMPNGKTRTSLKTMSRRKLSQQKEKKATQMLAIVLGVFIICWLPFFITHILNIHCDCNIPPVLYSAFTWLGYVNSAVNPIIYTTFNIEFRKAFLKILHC
PROCEDURE DETAILS: Dopamine D2L radioligand binding ([3H]Spiperone)
TEST CONDITIONS: compound at 1 μM; read-out: Dopamine (1 μM) D2L, percentage inhibition of ligand binding
Description: To evaluate in radioligand binding assays the activity of compounds of the invention, human recombinant dopamine D2L receptor expressed in Chinese hamster ovary (CHO) cells (Grandy, D. et al, Proc. Natl. Acad. Sci. USA. 86:9762, 1989; Hayes, G. et al, Mol. Endocrinol. 6:920, 1992) in a modified Tris-HCl buffer (50 mM Tris-HCl, pH 7.4, 1.4 mM Ascorbic Acid, 0.001% BSA, 150 mM NaCl) was used. Compounds of the invention were incubated with 0.16 nM [^3H]Spiperone for 120 min. at 25° C. […]
Listing of entries alongside the reported inhibition at 1 µM.

{"MOLECULE": "CN1CCc2c(c3cccc4c3n2CCC4)C1", "VALUE UNIT": "%", "inhibition at 1 µM": 15}
{"MOLECULE": "Cc1cc2c3c(c1)c1c(n3C(c3ccccc3)C2)CCN(C)C1 (centres unmarked)", "VALUE UNIT": "%", "inhibition at 1 µM": 44}
{"MOLECULE": "Cc1cc2c3c(c1)c1c(n3CC2)CCN(CCCC(=O)c2ccc(F)cc2)C1", "VALUE UNIT": "%", "inhibition at 1 µM": 91}
{"MOLECULE": "Cc1cc2c3c(c1)c1c(n3CC(c3ccc(F)cc3)CC2)CCN(C)C1 (centres unmarked)", "VALUE UNIT": "%", "inhibition at 1 µM": 83}
{"MOLECULE": "O=C(CCCN1CCc2c(c3cccc4c3n2CCC4)C1)c1ccc(F)cc1", "VALUE UNIT": "%", "inhibition at 1 µM": 86}

* * *

EXPERIMENTAL SYSTEM: human recombinant serotonin (5-Hydroxytryptamine) 5-HT2C receptor (Homo sapiens, UniProt P28335)
Construct: expressed in transfected cells; host or cells: CHO-K1
Sequence (P28335 33-458): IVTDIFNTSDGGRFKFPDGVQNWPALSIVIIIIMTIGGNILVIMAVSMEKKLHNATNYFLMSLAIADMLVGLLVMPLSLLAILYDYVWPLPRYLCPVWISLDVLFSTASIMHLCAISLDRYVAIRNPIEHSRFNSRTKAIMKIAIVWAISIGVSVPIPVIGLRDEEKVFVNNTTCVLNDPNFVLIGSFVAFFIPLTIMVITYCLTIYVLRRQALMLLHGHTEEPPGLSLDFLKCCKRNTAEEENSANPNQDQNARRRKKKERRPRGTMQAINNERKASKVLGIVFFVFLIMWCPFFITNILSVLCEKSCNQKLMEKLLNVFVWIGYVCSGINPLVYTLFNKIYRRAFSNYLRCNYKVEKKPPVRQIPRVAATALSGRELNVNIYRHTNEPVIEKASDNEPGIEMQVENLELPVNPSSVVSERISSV
PROCEDURE DETAILS: Serotonin 5-HT2C radioligand binding ([3H]Mesulergine)
TEST CONDITIONS: compound at 0.1 μM; read-out: Serotonin (0.1 μM) 5-HT2C, percentage inhibition of ligand binding
Entries are grouped by inhibition at 0.1 µM into these classes: LOW: < 7%; MID: ≥ 7% and < 60%; HIGH: ≥ 60%

{"COMPOUND": "Cc1cc2c3c(c1)c1c(n3CC(c3ccccc3)O2)CCN(C)C1 (stereo not drawn)", "GROUP": "LOW"}
{"COMPOUND": "Cc1cc2c3c(c1)c1c(n3CC(c3ccc(F)cc3)=C2)CCN(C)C1", "GROUP": "MID"}
{"COMPOUND": "Cc1cc2c3c(c1)c1c(n3CC(c3ccc(F)cc3)=CC2)CCN(C)C1", "GROUP": "HIGH"}
{"COMPOUND": "CN1CCc2c(c3cccc4c3n2CC(c2ccncc2)S4)C1 (stereo not drawn)", "GROUP": "MID"}
{"COMPOUND": "CN1CCc2c(c3cccc4c3n2CCO4)C1", "GROUP": "MID"}
{"COMPOUND": "O=C(CCCN1CCc2c(c3cccc4c3n2CCC4)C1)c1ccc(F)cc1", "GROUP": "HIGH"}
{"COMPOUND": "Cc1cc2c3c(c1)c1c(n3C[C@](C)(c3ccncc3)O[C@H]2C)CCN(C)C1", "GROUP": "LOW"}
{"COMPOUND": "CN1CCc2c(c3cccc4c3n2CC(c2ccc(F)cc2)C4)C1 (stereo not drawn)", "GROUP": "MID"}
